Exercise: state measured AUC of viability dose-response curve for each of the compounds provided.
- Tested on: SEM cells
- method notes: AUC of viability dose-response curve (% viability x log10 dose units); higher = less sensitive
- test settings: RPMI 5 mM glucose + 10% dialyzed FBS; 48 h
Give bare numbers.

Example entries and their recorded answers appear below.
CCCCCC[C@H]1C(=O)O[C@H](C)[C@H](NC(=O)c2cccc(NC=O)c2O)C(=O)O[C@@H](C)[C@@H]1OC(=O)CC(C)C = 416
C[C@@]12C[C@@]3(O)O[C@@H](O1)[C@]1(COC(=O)c4ccccc4)[C@H]3C[C@@]12O[C@@H]1O[C@H](CO)[C@@H](O)[C@H](O)[C@H]1O = 463
C=CC[C@@H]1/C=C(\C)C[C@H](C)C[C@H](OC)[C@H]2O[C@@](O)(C(=O)C(=O)N3CCCC[C@H]3C(=O)O[C@H](/C(C)=C/[C@@H]3CC[C@@H](O)[C@H](OC)C3)[C@H](C)[C@@H](O)CC1=O)[C@H](C)C[C@@H]2OC = 362
C[C@]12CC[C@@H]3c4ccc(O)cc4C[C@@H](CCCCCCCCC[S+]([O-])CCCC(F)(F)C(F)(F)F)[C@H]3[C@@H]1CC[C@@H]2O (stereo partly specified) = 459
COc1ccc(-n2nc(C(N)=O)c3c2C(=O)N(c2ccc(N4CCCCC4=O)cc2)CC3)cc1 = 442

// switching to the query compound
Incoming: Looking for the measured AUC of viability dose-response curve of O=C(c1ccc(Nc2nccc(-c3cc4ccccc4s3)n2)cc1)N1CCC(N2CCCC2)CC1 , can you help?
Outgoing: 394

* * *

Can you tell me cell viability for the items I'm about to list?
- Test system: P12-Ichikawa
- method notes: cell viability relative to DMSO control; higher = less cytotoxic
- test settings: RPMI 5 mM glucose + 10% dialyzed FBS; 48 h; 1.71 µM
Answers are plain numbers, in %.

Some entries whose results are on file:
O=C(O)C1=NC(C(=O)O)CC(/C=C/N2c3cc(O)c(OC4OC(CO)C(O)C(O)C4O)cc3CC2C(=O)O)=C1 (stereo not drawn) = 99.5
COc1ccc(C(C)=O)c(O)c1 = 99.9
CN1CCN(c2ccc([N+](=O)[O-])c3no[n+]([O-])c23)CC1 = 89
COC1=CC=C(C=C1)C/2=C/OC3=C(C(=CC(=C3)O)O)C2=O = 137
C[N]1C=C(C2=C1C=CC=C2)\C3=C(\C(=O)NC3=O)C4=C5CC(CN)CC[N]5C6=C4C=CC=C6 (stereo not drawn) = 119

Please supply cell viability for each of the following items, keeping them in order.
1. O=c1[nH]c2ccccc2n1C1CCN(Cc2ccc(-c3nc4cc5nc[nH]c5cc4nc3-c3ccccc3)cc2)CC1
2. CNC(=O)c1ccc(N2C(=S)N(c3ccc(C#N)c(C(F)(F)F)c3)C(=O)C23CCC3)cc1F
3. CCC[C@H]1C[C@H](C(=O)N[C@@H]([C@@H]2O[C@@H](SC)[C@@H](O)[C@@H](O)[C@H]2O)[C@H](C)Cl)N(C)C1

Outgoing:
1. 91.1
2. 91
3. 119

* * *

- Test system: NOMO1
- method notes: cell viability relative to DMSO control; higher = less cytotoxic
- test settings: RPMI 5 mM glucose + 10% dialyzed FBS; 48 h; 46.1 µM
Answer each item with its documented cell viability.
Give the number first and the unit second.

The examples below pair each entry with its known result.
C\C1=C(\C=C(\C#N)C(=O)N1)C2=CC=NC=C2 = 81.2%
C[S+](=O)([O-])N1CCc2c(-c3cnc(N)nc3)nc(N3CCOCC3)nc21 = 56.8%
N[C@H](CSC(c1ccccc1)(c1ccccc1)c1ccccc1)C(=O)O = 116%
OC1CCC(Nc2ncc3nc(Nc4c(F)cc(F)cc4F)n([C@@H]4CCOC4)c3n2)CC1 (stereo not given in full) = 126%

Shifting focus to the compound that follows.
Incoming: Please give the measured cell viability for this compound: CN1\C(=C(\O)C2=CC=CC=C2[S+]1([O-])=O)C(=O)NC3=NC=C(C)S3
Outgoing: 91.8%
